- test system: T1, human FcRn (AcrobioSystems; Catalog No: FCM-H5286) (human, UniProt P55899 24-297; P61769 21-119)
- T1 construct: Bought protein
- T1 sequence (P55899 24-297 limits assumed, chain 1 of 2): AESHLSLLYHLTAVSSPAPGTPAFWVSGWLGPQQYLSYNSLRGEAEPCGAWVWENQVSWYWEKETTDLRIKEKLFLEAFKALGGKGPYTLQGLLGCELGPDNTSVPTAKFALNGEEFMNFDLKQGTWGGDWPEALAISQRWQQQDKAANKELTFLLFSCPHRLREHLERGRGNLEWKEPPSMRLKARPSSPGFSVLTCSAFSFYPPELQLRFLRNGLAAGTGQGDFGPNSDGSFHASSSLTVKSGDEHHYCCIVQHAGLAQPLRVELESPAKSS
- T1 sequence (P61769 21-119 limits assumed, chain 2 of 2): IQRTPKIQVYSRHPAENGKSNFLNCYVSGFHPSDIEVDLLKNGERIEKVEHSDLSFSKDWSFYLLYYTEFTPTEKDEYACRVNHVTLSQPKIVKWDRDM
- assay explanation: SPR Biacore 8K, polypeptide coupled to CM5 chip, human FcRn as analyte, pH 6.0, steady state affinity fit
property name: pKd
In plain terms, pKd is the concentration in mol/L turned into minus its base-10 logarithm.

-- ask Request the reported pKd associated with SPINK9-112.2K62G.Fc (SEQ ID NO: 76) (Fc fusion, Mutant SPINK9 domain fused directly to a C-terminal IgG Fc) IECAKQTKQMVDCSHYKKLPPEQELYCTREYDPICGSDGKTYGNDCFFCSKVKKTDGTLKFVHFGKCEPKSCDKTHTCPPCPAPEAAGGPSVFLFPPKPKDTLYITREPEVTCVVVDVSHEDPEVKFNWYVDGVEVHNAKTKPREEQYNSTYRVVSVLTVLHQDWLNGKEYKCKVSNKALPAPIEKTISKAKGQPREPQVYTLPPSREEMTKNQVSLTCLVKGFYPSDIAVEWESNGQPENNYKTTPPVLDSDGSFFLYSKLTVDKSRWQQGNVFSCSVMHEALHNHYTQKSLSLSPGK
-- reply 6.72

-- ask Would you mind doing Spink9-30.Fc (SEQ ID NO: 55) (Fc fusion, Mutant SPINK9 domain fused directly to a C-terminal IgG Fc) IECAKQTKQMVDCSHYKKLPPEQVSWCTREYDPICGSDGKTYKNDCFFCSKVKKTDGTLKFVHFGKCEPKSCDKTHTCPPCPAPEAAGGPSVFLFPPKPKDTLMISRTPEVTCVVVDVSHEDPEVKFNWYVDGVEVHNAKTKPREEQYNSTYRVVSVLTVLHQDWLNGKEYKCKVSNKALPAPIEKTISKAKGQPREPQVYTLPPSREEMTKNQVSLTCLVKGFYPSDIAVEWESNGQPENNYKTTPPVLDSDGSFFLYSKLTVDKSRWQQGNVFSCSVLHEALHSHYTQKSLSLSPGK as well?
-- reply 6.64
